# tested_on: M5 muscarinic receptor (Homo sapiens, UniProt P08912)
# Construct: host or cells: CHO (Chinese hamster ovary) cells, stably transfected
# Sequence (P08912 whole entry): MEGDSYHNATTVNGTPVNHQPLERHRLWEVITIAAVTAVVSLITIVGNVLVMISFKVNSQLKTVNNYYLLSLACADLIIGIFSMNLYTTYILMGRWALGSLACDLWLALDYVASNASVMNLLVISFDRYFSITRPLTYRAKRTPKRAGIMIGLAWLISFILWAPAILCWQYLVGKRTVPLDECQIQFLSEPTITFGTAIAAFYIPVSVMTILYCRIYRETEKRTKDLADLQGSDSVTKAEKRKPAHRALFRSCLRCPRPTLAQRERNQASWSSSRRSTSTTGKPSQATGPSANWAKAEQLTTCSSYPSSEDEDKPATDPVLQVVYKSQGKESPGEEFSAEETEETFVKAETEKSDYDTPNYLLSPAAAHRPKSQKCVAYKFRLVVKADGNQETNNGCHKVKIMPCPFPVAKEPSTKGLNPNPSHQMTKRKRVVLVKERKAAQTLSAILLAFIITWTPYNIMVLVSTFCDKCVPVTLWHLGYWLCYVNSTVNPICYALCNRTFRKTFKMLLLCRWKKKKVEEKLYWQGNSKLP
# method: Competition with [3H]NMS (equilibrium binding, CHO membranes)
# study_conditions: read-out: Binding Equilibrium Constants (expressed as pKI) (converted)
Where a name gives a salt, the structure may show the parent alone.
readout_name: Ki (nM)
API: value field is a number in nM; no unit string.

Task: Recorded Ki of CCCCc1ccc(C(=O)OCC[N+]2(C)CC=CCC2)cc1 (stereo not drawn) [Compound 10b] , please.
Result: 1580

Task: Recorded Ki of CCCCOc1ccc(C(=O)OCC[N+]2(C)CC=CCC2)cc1 (stereo not drawn) [Compound 10a] , please.
Result: 3160

Task: Recorded Ki of CCCCc1ccc(C(=O)OCCN2CC=CCC2)cc1 [Compound 9b, hydrochloride] , please.
Result: 25100

Task: Recorded Ki of CCCCCCOc1ccc(C(=O)OCC[N+]2(C)CC=CCC2)cc1 (stereo not drawn) [Compound 10c] , please.
Result: 158

Task: Recorded Ki of CCCCc1ccc(C(=O)OCC[N+]2(C)CCCCC2)cc1 [Compound 13b] , please.
Result: 2450

Task: Recorded Ki of CCCCc1ccc(C(=O)OCCN2CCCCC2)cc1 [Compound 14b] , please.
Result: 5010

---

# tested_on: M3 muscarinic receptor (Homo sapiens, UniProt P20309)
# Construct: host or cells: Chinese hamster ovary cells
# Sequence (P20309 whole entry): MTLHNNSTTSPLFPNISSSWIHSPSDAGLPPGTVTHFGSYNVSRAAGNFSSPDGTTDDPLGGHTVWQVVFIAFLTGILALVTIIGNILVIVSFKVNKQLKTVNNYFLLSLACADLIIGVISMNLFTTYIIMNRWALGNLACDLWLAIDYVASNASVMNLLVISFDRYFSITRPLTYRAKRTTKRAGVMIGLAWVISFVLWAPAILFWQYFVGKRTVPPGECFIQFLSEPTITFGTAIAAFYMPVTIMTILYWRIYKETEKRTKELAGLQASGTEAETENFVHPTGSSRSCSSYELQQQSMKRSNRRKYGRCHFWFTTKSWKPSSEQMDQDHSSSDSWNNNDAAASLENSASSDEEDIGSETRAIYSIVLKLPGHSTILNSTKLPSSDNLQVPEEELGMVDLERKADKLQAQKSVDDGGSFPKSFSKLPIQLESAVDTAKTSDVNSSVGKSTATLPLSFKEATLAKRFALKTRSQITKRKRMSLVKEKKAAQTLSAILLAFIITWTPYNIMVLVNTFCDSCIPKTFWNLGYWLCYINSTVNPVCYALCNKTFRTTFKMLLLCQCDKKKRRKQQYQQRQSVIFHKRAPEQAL
# method: Competition with [3H]NMS (equilibrium binding, CHO membranes)
# study_conditions: competition with [^3H]NMS, M3, experiment 2; read-out: IC50—2
readout_name: IC50
The reply must contain the numeric value and, after it, the unit.

Task: Recorded IC50 of `CCCCOc1ccc(C(=O)OCC[N+]2(C)CCCCC2)cc1.[I-]` , please.
Result: 17.2 µM

---

# tested_on: M3 muscarinic receptor (Homo sapiens, UniProt P20309)
# Construct: host or cells: Chinese hamster ovary cells
# method: Competition with [3H]NMS (equilibrium binding, CHO membranes)
# study_conditions: competition with [^3H]NMS, M3, average of 3; read-out: avg IC50
readout_name: IC50 (µM)
API: value field is a number in µM; no unit string.

Task: Recorded IC50 of `CCCCOc1ccc(C(=O)OCC[N+]2(C)CCCCC2)cc1.[I-]` , please.
Result: 16.9

---

# tested_on: M1 muscarinic receptor (Homo sapiens)
# Sequence (P11229 whole entry): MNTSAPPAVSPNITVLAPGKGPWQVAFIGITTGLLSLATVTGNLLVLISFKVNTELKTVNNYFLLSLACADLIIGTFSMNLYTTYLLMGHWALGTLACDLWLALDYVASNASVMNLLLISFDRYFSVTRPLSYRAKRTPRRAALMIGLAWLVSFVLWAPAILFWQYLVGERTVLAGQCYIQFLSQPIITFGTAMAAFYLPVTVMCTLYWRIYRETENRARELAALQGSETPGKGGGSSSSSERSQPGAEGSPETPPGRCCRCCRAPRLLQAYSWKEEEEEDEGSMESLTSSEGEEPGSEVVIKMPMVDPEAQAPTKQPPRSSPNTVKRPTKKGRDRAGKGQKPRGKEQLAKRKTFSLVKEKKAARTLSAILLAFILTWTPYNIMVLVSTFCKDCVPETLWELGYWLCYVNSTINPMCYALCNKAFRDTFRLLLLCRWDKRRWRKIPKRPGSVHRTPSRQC
# method: biochemical
# Format: binding
# study_conditions: competition with [^3H]QNB, M1, average of 3; read-out: avg IC50
readout_name: pIC50
Field pIC50 (float): negative decimal logarithm of the concentration in molar.

Task: Recorded pIC50 of `CCCCOc1ccc(C(=O)OCC[N+]2(C)CCCCC2)cc1.[I-]` , please.
Result: 5.06

---

# tested_on: M1 muscarinic receptor (Homo sapiens)
# method: Competition with [3H]NMS (equilibrium binding, CHO membranes)
# study_conditions: read-out: KI
readout_name: Ki (µM)
API: value field is a number in µM; no unit string.

Task: Recorded Ki of CCCCOc1ccc(C(=O)OCC[N+]2(C)CCCCC2)cc1.[I-] [JB-D4] , please.
Result: 2.88

---

# tested_on: UniProt:P11229
# method: Competition with [3H]NMS (equilibrium binding, CHO membranes)
# study_conditions: competition with [^3H]NMS, M1, experiment 2; read-out: IC50—2
readout_name: IC50 (µM)
API: value field is a number in µM; no unit string.

Task: Recorded IC50 of CCCCOc1ccc(C(=O)OCC[N+]2(C)CCCCC2)cc1.[I-] [JB-D4] , please.
Result: 13.8
